# measured-on: 5-HT2c receptors (Homo sapiens, UniProt P28335)
# protocol: Functional activity, FLIPR calcium assay, CHO cells expressing human 5-HT2C
# measurement-parameters: FLIPR, CHO cells, Fluo-3-AM; read-out: h5-HT2C EC50
pEC50: −log10 of the molar value. Counter-ions that a name gives are not always drawn.
assay-readout: pEC50

INSERT INTO measurements (compound, measured_on, assay_readout, assay_result) VALUES
  ('C[C@H](N)Cn1ccc2cc(Cl)c3ncccc3c21 [Example 5, fumarate]', '5-HT2c receptors (Homo sapiens, UniProt P28335)', 'pEC50', 8.30),
  ('C[C@H](N)Cn1ccc2ccc3cccnc3c21', '5-HT2c receptors (Homo sapiens, UniProt P28335)', 'pEC50', 7.00),
  ('C[C@H](N)Cn1ccc2ccc3ccncc3c21 [Example 7, fumarate]', '5-HT2c receptors (Homo sapiens, UniProt P28335)', 'pEC50', 7.44),
  ('C[C@H](N)Cn1ccc2ccc3cnccc3c21 [Example 4, fumarate]', '5-HT2c receptors (Homo sapiens, UniProt P28335)', 'pEC50', 6.85),
  ('C[C@@H](Cn1ccc2ccc3ncccc3c21)NCc1ccc2c(c1)OCO2 [Example 9, bis-fumarate]', '5-HT2c receptors (Homo sapiens, UniProt P28335)', 'pEC50', 7.07),
  ('C[C@@H](N)Cn1ccc2ccc3ncccc3c21', '5-HT2c receptors (Homo sapiens, UniProt P28335)', 'pEC50', 8.15),
  ('C[C@H](N)Cn1ccc2ccc3ncccc3c21', '5-HT2c receptors (Homo sapiens, UniProt P28335)', 'pEC50', 7.92);

* * *

Listed here: items and their measured Ki.
# measured-on: 5-HT2A receptors (Homo sapiens)
# protocol: Binding to 5-HT2A receptor, [125I]-DOI, CHO cell line
# Parameters: expressed in transfected cells; host or cells: CHO cell line
# measurement-parameters: read-out: Ki (2A)
Where a name gives a salt, the structure may show the parent alone.
assay-readout: Ki (nM)

INSERT INTO results (compound, assay_result) VALUES
  ('C[C@H](N)Cn1ccc2ccc3ncccc3c21', 45),
  ('CC(N)Cn1ccc2ccc3ncccc3c21 (racemic) [Example 3, hydrochloride]', 40),
  ('C[C@H](N)Cn1ccc2ccc3cnccc3c21 [Example 4, fumarate]', 173),
  ('C[C@H](N)Cn1ccc2ccc3cccnc3c21', 90),
  ('C[C@@H](N)Cn1ccc2ccc3ncccc3c21', 37);

* * *

# measured-on: 5-HT2c receptors (Homo sapiens)
# Sequence (P28335 33-458): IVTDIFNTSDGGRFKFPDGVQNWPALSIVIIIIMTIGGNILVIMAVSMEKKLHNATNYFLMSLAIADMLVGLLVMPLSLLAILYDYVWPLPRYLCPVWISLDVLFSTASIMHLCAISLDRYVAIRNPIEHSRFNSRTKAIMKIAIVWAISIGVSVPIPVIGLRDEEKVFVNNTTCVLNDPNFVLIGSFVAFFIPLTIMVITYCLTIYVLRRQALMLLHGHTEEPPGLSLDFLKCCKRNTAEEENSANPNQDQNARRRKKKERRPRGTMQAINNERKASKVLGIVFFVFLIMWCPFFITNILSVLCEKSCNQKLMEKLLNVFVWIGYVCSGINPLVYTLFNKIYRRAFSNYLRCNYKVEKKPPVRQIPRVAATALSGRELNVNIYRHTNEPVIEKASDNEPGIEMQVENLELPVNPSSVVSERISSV
pKi: −log10 of the molar value. Counter-ions that a name gives are not always drawn.
pKi for assorted compounds
assay-readout: pKi

INSERT INTO assay_data (compound, assay_readout, assay_result) VALUES
  ('C[C@H](N)Cn1ccc2ccc3cnccc3c21 [Example 4, fumarate]', 'pKi', 6.81),
  ('C[C@H](N)Cn1ccc2ccc3ncccc3c21', 'pKi', 8.05),
  ('CC(N)Cn1ccc2ccc3ncccc3c21 (racemic) [Example 3, hydrochloride]', 'pKi', 7.62),
  ('C[C@H](N)Cn1ccc2ccc3cccnc3c21', 'pKi', 7.35),
  ('C[C@@H](N)Cn1ccc2ccc3ncccc3c21', 'pKi', 7.66);

* * *

Listed here are compounds together with their documented melting point.
Where a name gives a salt, the structure may show the parent alone.
assay-readout: melting point

INSERT INTO measurements (compound, assay_readout, assay_result) VALUES
  ('C[C@@H](N)Cn1ccc2ccc3ncccc3c21 (as salt: hydrochloride) [Example 2]', 'melting point', '223 to 225 °C'),
  ('C[C@H](N)Cn1ccc2ccc3cnccc3c21 (as salt: fumarate) [Example 4]', 'melting point', '165 °C'),
  ('C[C@H](N)Cn1ccc2ccc3ncccc3c21 (as salt: hydrochloride) [Example 1]', 'melting point', '222 to 224 °C'),
  ('C[C@H](N)Cn1ccc2ccc3ccncc3c21 (as salt: fumarate) [Example 7]', 'melting point', '153 to 154 °C'),
  ('C[C@H](N)Cn1ccc2ccc3cccnc3c21 (as salt: fumarate) [Example 8]', 'melting point', '212 to 214 °C'),
  ('COc1nccc2c1ccc1ccn(C[C@H](C)N)c12 (as salt: fumarate)', 'melting point', '180 to 182 °C'),
  ('C[C@H](N)Cn1ccc2cc(Cl)c3ncccc3c21 (as salt: fumarate) [Example 5]', 'melting point', '228 to 229 °C');

* * *

# measured-on: 5-HT2c receptors (Homo sapiens, UniProt P28335)
# protocol: Functional activity, FLIPR calcium assay, CHO cells expressing human 5-HT2C
# Type: cell-based
# Parameters: expressed in transfected cells; host or cells: CHO cells
# measurement-parameters: maximum fluorescent signal relative to 10 μM 5-HT (defined as 100%)
Counter-ions that a name gives are not always drawn.
Entries and their h5-HT2C Relative Efficacy (%)
assay-readout: h5-HT2C Relative Efficacy (%)

INSERT INTO results (compound, measured_on, assay_readout, assay_result) VALUES
  ('C[C@@H](N)Cn1ccc2ccc3ncccc3c21', '5-HT2c receptors (Homo sapiens, UniProt P28335)', 'h5-HT2C Relative Efficacy (%)', '85%'),
  ('C[C@@H](Cn1ccc2ccc3ncccc3c21)NCc1ccc2c(c1)OCO2 [Example 9, bis-fumarate]', '5-HT2c receptors (Homo sapiens, UniProt P28335)', 'h5-HT2C Relative Efficacy (%)', '90%'),
  ('C[C@H](N)Cn1ccc2ccc3cnccc3c21 [Example 4, fumarate]', '5-HT2c receptors (Homo sapiens, UniProt P28335)', 'h5-HT2C Relative Efficacy (%)', '89%'),
  ('C[C@H](N)Cn1ccc2cc(Cl)c3ncccc3c21 [Example 5, fumarate]', '5-HT2c receptors (Homo sapiens, UniProt P28335)', 'h5-HT2C Relative Efficacy (%)', '86%'),
  ('C[C@H](N)Cn1ccc2ccc3cccnc3c21', '5-HT2c receptors (Homo sapiens, UniProt P28335)', 'h5-HT2C Relative Efficacy (%)', '24%'),
  ('C[C@H](N)Cn1ccc2ccc3ccncc3c21 [Example 7, fumarate]', '5-HT2c receptors (Homo sapiens, UniProt P28335)', 'h5-HT2C Relative Efficacy (%)', '83%'),
  ('C[C@H](N)Cn1ccc2ccc3ncccc3c21', '5-HT2c receptors (Homo sapiens, UniProt P28335)', 'h5-HT2C Relative Efficacy (%)', '93%');

* * *

Dear all, this message contains pKi results, target or system human 5-HT2B receptors (Homo sapiens).
pKi: −log10 of the molar value. Counter-ions that a name gives are not always drawn.
assay-readout: pKi

INSERT INTO measurements (molecule, assay_result) VALUES
  ('CC(N)Cn1ccc2ccc3ncccc3c21 (racemic) [Example 3, hydrochloride]', 8.05),
  ('C[C@H](N)Cn1ccc2ccc3cccnc3c21', 7.06),
  ('C[C@@H](N)Cn1ccc2ccc3ncccc3c21', 8.30),
  ('C[C@H](N)Cn1ccc2ccc3cnccc3c21 [Example 4, fumarate]', 7.08),
  ('C[C@H](N)Cn1ccc2ccc3ncccc3c21', 7.92);

* * *

Listing: h5-HT2A Relative Efficacy (%) of selected compounds
# measured-on: 5-HT2A receptors (Homo sapiens, UniProt P28223)
# Sequence (P28223 whole entry): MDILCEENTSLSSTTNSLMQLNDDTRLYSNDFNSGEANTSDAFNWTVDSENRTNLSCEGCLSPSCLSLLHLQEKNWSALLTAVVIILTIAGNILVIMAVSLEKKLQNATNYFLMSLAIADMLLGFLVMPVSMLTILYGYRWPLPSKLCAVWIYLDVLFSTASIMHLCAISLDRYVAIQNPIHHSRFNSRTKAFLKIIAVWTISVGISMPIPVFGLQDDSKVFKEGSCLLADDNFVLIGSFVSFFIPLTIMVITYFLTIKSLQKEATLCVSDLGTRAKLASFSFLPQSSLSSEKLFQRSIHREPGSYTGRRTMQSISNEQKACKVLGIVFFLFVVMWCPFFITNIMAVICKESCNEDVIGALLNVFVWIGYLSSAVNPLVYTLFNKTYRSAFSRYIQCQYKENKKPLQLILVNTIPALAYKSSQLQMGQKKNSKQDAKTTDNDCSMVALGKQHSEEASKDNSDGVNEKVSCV
# protocol: Functional activity, FLIPR calcium assay, CHO cells expressing human 5-HT2A
# Type: cell-based
# Design: expressed in transfected cells; host or cells: CHO cells
# measurement-parameters: maximum fluorescent signal relative to 10 μM 5-HT (defined as 100%)
Structures can show the parent of a compound that is named as a salt.
assay-readout: h5-HT2A Relative Efficacy (%)

INSERT INTO assay_data (compound, assay_result) VALUES
  ('C[C@H](N)Cn1ccc2ccc3ncccc3c21', 100),
  ('C[C@H](N)Cn1ccc2ccc3cccnc3c21', 31),
  ('C[C@H](N)Cn1ccc2ccc3ccncc3c21 [Example 7, fumarate]', 61),
  ('C[C@H](N)Cn1ccc2ccc3cnccc3c21 [Example 4, fumarate]', 54),
  ('C[C@@H](Cn1ccc2ccc3ncccc3c21)NCc1ccc2c(c1)OCO2 [Example 9, bis-fumarate]', 65),
  ('C[C@@H](N)Cn1ccc2ccc3ncccc3c21', 96),
  ('C[C@H](N)Cn1ccc2cc(Cl)c3ncccc3c21 [Example 5, fumarate]', 80);
